- Tested on: CEM cells HIV-1 protection, formazan growth assay
- test-description: NCI AIDS Antiviral Assay
- test-context: measured here: growth of uninfected CEM cells
What pIC50 was measured for each of the following?
// pIC50 is dimensionless: -log10 of concentration (M)

So what does the record say about pIC50 for "COc1ccc(C[C@@H]2Cc3cc(OC)c(OC)cc3CN2C)cc1" ?
4.34

If you can, please state the reported pIC50 value of "Cc1cccc(C)c1N/C(=N\Nc1c([N+](=O)[O-])cccc1[N+](=O)[O-])NC(=O)c1ccccc1C(=O)N/C(=N/Nc1c([N+](=O)[O-])cccc1[N+](=O)[O-])Nc1c(C)cccc1C" .
4.16

Give its pIC50 value. Item: CC1CCC2(CC1)N=C1CCC(C)CC1C1(CCC(C)CC1)N2 (centres undefined)
4.01

Quick check: pIC50 of "CN1CCN(c2ccc3nc(-c4ccc5nc(-c6ccc(O)cc6)[nH]c5c4)[nH]c3c2)CC1" ?
5.41

Using the record for "Cc1c([N+](=O)[O-])c(=O)oc2cc3occc(=O)c3cc12" , report its pIC50.
4.74

Give the measured pIC50 of "CCN(CC)c1cccc2c1/C(=N/O)CCCC2" .
3.92

Please report the recorded pIC50 for "O=C(O)CCSCc1cc(C(=O)Nc2ccc(/C=C/c3ccc(NC(=O)c4cc(CSCCC(=O)O)c5cccnc5c4O)cc3S(=O)(=O)O)c(S(=O)(=O)O)c2)c(O)c2ncccc12" .
4.47

Reported pIC50 for "Cc1cc(NS(=O)(=O)c2ccc(Nc3c4ccccc4nc4ccc(C(=O)Nc5ccc(S(N)(=O)=O)cc5)cc34)cc2)no1" : what is it?
3.96

Fill blank: measured pIC50 of the molecule "CCOC(=O)N(C)C1(c2ccccc2)CCN(CCCC(=O)c2ccc(F)cc2)CC1" is ____.
4.08

State the recorded pIC50 for this entry: CC(=O)NC1C(O[C@H]2CC[C@@]3(C)C(CC[C@]4(C)C3CC=C3C5CC(C)(C)CC[C@]5(C(=O)O)CCC34C)C2(C)C)OC(CO)C(O)C1O (some centres undefined)
5.04
